I'd appreciate it if you could supply percent of DMSO vehicle control at 10 µM values for the items below.
# tested on: STAT3(S614R)-nonphosphorylated (Homo sapiens, UniProt P40763, S614R)
# Construct: made in house; host or cells: HEK293 (transient transfection), unpurified extract, dephosphorylated by endogenous phosphatases
# Sequence (P40763 whole entry S614R): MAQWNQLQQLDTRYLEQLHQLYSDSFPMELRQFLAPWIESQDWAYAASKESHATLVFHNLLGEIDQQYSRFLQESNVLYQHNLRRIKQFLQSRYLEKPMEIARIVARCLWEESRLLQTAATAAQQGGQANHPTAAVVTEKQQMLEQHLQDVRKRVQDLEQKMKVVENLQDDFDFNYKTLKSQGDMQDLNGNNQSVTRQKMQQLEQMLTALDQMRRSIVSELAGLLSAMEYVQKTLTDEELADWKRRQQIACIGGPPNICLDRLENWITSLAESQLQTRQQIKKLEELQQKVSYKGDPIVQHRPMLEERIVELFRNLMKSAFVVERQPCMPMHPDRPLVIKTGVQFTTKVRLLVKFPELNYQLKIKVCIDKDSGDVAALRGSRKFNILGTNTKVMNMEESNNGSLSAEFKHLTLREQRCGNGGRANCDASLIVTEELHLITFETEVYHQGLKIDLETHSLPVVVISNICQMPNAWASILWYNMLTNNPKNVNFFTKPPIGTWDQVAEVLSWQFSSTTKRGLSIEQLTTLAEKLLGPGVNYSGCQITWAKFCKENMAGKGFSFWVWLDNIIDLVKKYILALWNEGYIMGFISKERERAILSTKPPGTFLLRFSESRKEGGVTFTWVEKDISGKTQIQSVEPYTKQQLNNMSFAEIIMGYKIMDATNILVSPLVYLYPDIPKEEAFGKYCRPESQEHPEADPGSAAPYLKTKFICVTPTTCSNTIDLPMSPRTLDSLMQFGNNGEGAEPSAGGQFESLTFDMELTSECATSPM
# measurement notes: biochemical
# Format: binding
# experimental context: read-out: percent of DMSO vehicle control
Non-standard residues stand in square brackets, D forms with d. Residues, ends and D or L forms follow the SMILES beside them. *: point of attachment. pY = N[C@@H](Cc1ccc(OP(=O)(O)O)cc1)C(=O)O; Caffeoyl = O=C(/C=C/c1ccc(O)c(O)c1)*
Numbers only; they are read as %.

Note to self: percent of DMSO vehicle control at 10 µM recorded for CC(=O)N[C@@H](Cc1ccc(CP(=O)(O)O)cc1)C(=O)NC1(C(=O)N[C@@H](CC(N)=O)C(=O)NCCCc2c(O)ccc3ccccc23)CCCCC1 [CGP78850] was 82.4

percent of DMSO vehicle control at 10 µM in this record for CC[C@H](C)[C@H](NC(=O)[C@H](CCC(=O)O)NC(=O)[C@H](CCC(=O)O)NC(=O)[C@H](Cc1ccc(OP(=O)(O)O)cc1)NC(=O)/C=C/c1ccc(O)c(O)c1)C(=O)N[C@@H](CCC(=O)O)C(=O)O [Caffeic acid-pYEEIE] (Caffeoyl-[pY]EEIE-OH) : 81.4

Noted for CC(=O)N1CC[C@H]2CC[C@@H](C(=O)N[C@@H](CCC(N)=O)C(=O)NC(c3ccccc3)c3ccccc3)N2C(=O)[C@@H](NC(=O)c2cc3cc(C(F)(F)P(=O)(O)O)ccc3[nH]2)C1 [SI-109] : its percent of DMSO vehicle control at 10 µM reads 0.1

Quick note, percent of DMSO vehicle control at 10 µM for NC(=O)CC[C@H](NC(=O)[C@@H]1CC[C@@H]2CCN(C(=O)CCCCCC#Cc3cccc4c3CN(C3CCC(=O)NC3=O)C4=O)C[C@H](NC(=O)c3cc4cc(C(F)(F)P(=O)(O)O)ccc4[nH]3)C(=O)N21)C(=O)NC(c1ccccc1)c1ccccc1 (stereo partly shown) [SD-36] landed at 1.6
